# System: NCI-H226 lung
# Method description: NCI tumour cell line growth inhibition, 48 h
Reported GI50 values follow for various compounds

Measured on NCI-H226 lung, O=C(Nc1cc(C(F)(F)F)ccc1F)Nc1n[nH]c2ccccc12 has a documented GI50 of > 100 µM

====

# Tested on: NCI-H460 lung
# Method description: NCI tumour cell line growth inhibition, 48 h
Endpoint label: TGI

Look over these answered cases.
Compound	Tested on	Endpoint label	Result
N#Cc1c(-c2ccccc2)/c(=C\O)c(=O)n2c1nc1ccccc12	NCI-H460 lung	TGI	> 100 µM
Cn1c(COC(=O)N2CCCCC2)nc2c(N3CCOCC3)nc(-c3ccccc3)nc21	NCI-H460 lung	TGI	3.27 µM

Consider Cc1nn(C(=O)c2ccc(Cl)cc2)c2c1C(c1ccc([N+](=O)[O-])cc1)SC(N)=N2 (stereo not drawn) . Its measured TGI is > 10 µM

Briefly, TGI measured for O=C1c2ccccc2C(=O)N1c1ccc(S(=O)(=O)Nc2ncccn2)cc1 : > 100 µM

Entry Cc1ccc(C)c(NC(=O)c2cc(-c3ccc([N+](=O)[O-])cc3)nc(N)n2)c1 ; TGI = > 100 µM

TGI for COc1ccc(O)c(C(=O)c2ccc(C(=O)O[C@@H]3CCCNC[C@H]3NC(=O)c3ccncc3)cc2)c1F is > 25 µM

Looking up COc1ccc(C2SCC(=O)N2c2ccc(-c3ccc(-n4c(-c5ccccc5)nc5ccccc5c4=O)cc3)cc2)cc1 (stereo not drawn) , I found its TGI recorded as > 100 µM

TGI reported for this compound COC(=O)C(CCC1C=CCC1)N=Cc1ccccc1 (stereo not drawn) : > 100 µM

Notebook: O=C(COc1cccc(/C=C2\COc3ccccc3C2=O)c1)Nc1nccs1 , TGI read as 31.6 µM

CCC(Sc1nnc2c3ccccc3n(CC)c2n1)C(=O)Nc1ccccc1OC (stereo not drawn) has a reported TGI of > 100 µM

# compound COc1ccc(-c2n[nH]nc2-c2csc3ccccc23)cc1OC ; its TGI = 18.9 µM

TGI reported for this compound CC(C)C(C/C=C1/CC(CO)(COC(=O)CC(C(C)C)C(C)C)OC1=O)C(C)C (stereo not drawn) : 20 µM

TGI reading for CC(c1ccc(Br)cc1)C(C(=O)O)C(=O)O (stereo not drawn) : > 100 µM
